This collection of values is drawn from paper PMC7994819.

# test-name: Clinical pharmacokinetics in plasma (LC–MS/MS, non-compartmental analysis) after oral modified formula ECa 233 capsules
# Assay type: in vivo, human (healthy Thai volunteers)
# experimental-setup: human, plasma, po, 500 mg, plasma; multiple dose oral, Day 7 (T0-72 h); ECa 233 500 mg daily; mean ± SD, n=11; read-out: AUC
quantity-measured: AUC (ng·h/mL)

a = C[C@H]1[C@H](C)CC[C@]2(C(=O)O)CC[C@]3(C)C(=CC[C@@H]4[C@@]5(C)C[C@@H](O)[C@H](O)[C@@](C)(CO)[C@@H]5[C@H](O)C[C@]43C)[C@H]12 [MDA, Madecassic acid]
b = C[C@H]1[C@H](C)CC[C@]2(C(=O)O)CC[C@]3(C)C(=CC[C@@H]4[C@@]5(C)C[C@@H](O)[C@H](O)[C@@](C)(CO)[C@@H]5CC[C@]43C)[C@H]12 [ASA, Asiatic acid]
Prompt: Hi there, can you help? I need to know whether a or b has lower measured AUC. Bench note: the answer is the label of the chosen record.
Completion: a
(a: 516 ng·h/mL, b: 1390 ng·h/mL)
